Origin of the recorded values: PubChem BioAssay (NCI)

Quick reference: TGI of the listed items.
- Test system: EKVX NSCLC
- procedure-text: NCI tumour cell line growth inhibition, 48 h
reported-metric: TGI

                                   compound    result
0                         O=C1CNS(=O)(=O)N1  > 100 µM
1  CCN1C(=O)C(=C/C=C/c2ccc(N(CC)CC)cc2)C(=O)N(CC)C1=S  > 100 µM
2  CN(C)c1ccc(Cc2cc3c(O)ccc(O)c3cc(Cc3ccc(N(C)C)cc3)c2=O)cc1   44.2 µM
3  COc1cc2[nH]c(-c3ccccc3)cc(=O)c2c(OC)c1OC  > 100 µM
4  C=CCNC(=O)N(CCC)CCCC(NC(C)=O)C(=O)NCc1ccccc1 (stereo unspecified)  > 100 µM
5  Nc1ccccc1C(=O)C(Br)C(Br)c1ccc2c(c1)OCO2 (stereo unspecified)     52 µM

* * *

- Tested on: U251 CNS
- procedure-text: NCI tumour cell line growth inhibition, 48 h
reported-metric: TGI

In [3]: df
Out[3]:
                                   compound  reported_metric    result
0  COc1c(O)c(OC)c2oc(-c3ccc(O)cc3)c(OC)c(=O)c2c1O              TGI  > 100 µM
1  O=C(CC(=O)Nc1ccccc1)NNC(c1cc(N=Nc2ccc(Br)cc2)ccc1O)P(O)O (centres undefined)              TGI   > 10 µM
2  CC(=O)n1c(=O)c2cc3c(=O)n(-c4cccc(C#N)c4)c(=O)c3cc2c1=O              TGI  > 100 µM
3  CC(C)Oc1ccc(C(=O)Cn2ccnc2)cc1-n1c(CN2CCN(C(=O)COc3ccc(Cl)cc3)CC2)nc2ccccc2c1=O              TGI   30.2 µM
4  Cc1ccc(NC(=O)/C(Cc2nc3ccc([N+](=O)[O-])cc3[nH]c2=O)=N\NC(=O)C[n+]2ccccc2)c(C)c1              TGI  > 100 µM
5  COc1ccc(/C=N/n2c(C)nc3c(sc(=S)n3-c3ccccc3)c2=O)cc1              TGI  > 100 µM
6  COc1ccc(C2c3cc4c(cc3OC(NCCO)C2C)OCO4)cc1 (centres undefined)              TGI   54.9 µM
7  O=S1SC(=S)C2C=CC=CC21 (centres undefined)              TGI  > 100 µM
8  COc1cc(/C=C2\CCC(C)/C(=C\c3cc(OC)c(OC)c(OC)c3)C2=O)cc(OC)c1OC (centres undefined)              TGI  > 100 µM

* * *

- System: NCI-H460 lung
- procedure-text: NCI tumour cell line growth inhibition, 48 h
reported-metric: TGI (µM)

>>> df
                                    molecule  reported_metric  units_label  rel  numeric_result
 0  O=C1C=CC(=O)C(CNc2ccc(C(=O)OCc3ccccc3)cc2)=C1              TGI           µM    =            38.9
 1          CSc1ccc(N(C)c2nc(C)nc3c2CCC3)cc1              TGI           µM    =              19
 2               Cc1ccccc1/C=C/C(=O)c1ccccc1              TGI           µM    =            38.7
 3  c1ccc(-c2nc(N3CCCNCC3)c3nc(-c4ccccc4)oc3n2)cc1              TGI           µM    =            3.54
 4            Cc1ccc2oc(=O)c(-c3ccccc3)nc2c1              TGI           µM    >             100
 5  O=C(O)CN(CC(=O)O)C(C(=O)O)c1ccccc1 (stereo unspecified)              TGI           µM    >             100
 6  CCN1C(=O)C(=C/C=C/c2ccc(N(CC)CC)cc2)C(=O)N(CC)C1=S              TGI           µM    >             100
 7  CC1(C)N=C2C(=O)c3c([nH]c4ccccc34)[C@]3(C)CCC1CC23 (stereo partly specified)              TGI           µM    >            6.25
 8  CN(C)c1ccc(Cc2cc3c(O)ccc(O)c3cc(Cc3ccc(N(C)C)cc3)c2=O)cc1              TGI           µM    >             100
 9  C=C1C2Oc3ccccc3C1N(c1ccccc1)O2 (stereo unspecified)              TGI           µM    =            55.5
10  COc1c(O)c(OC)c2oc(-c3ccc(O)cc3)c(OC)c(=O)c2c1O              TGI           µM    >             100
